Ref: patent US8309685B2

Biological target: wild type HCV NS3/4A 1b protease enzyme (Hepatitis C virus genotype 1b, UniProt P26663)
Construct: 10× stocks of NS3/4A protease enzyme from Bioenza (Mountain View, Calif.); purchased Bioenza (Mountain View, Calif.)
Test: HCV Protease FRET Assay (IC50_APP), wild type
Type: biochemical
Conditions: read-out: IC50_APP, WT; apparent IC50, wild type NS3/4A 1b
reportedMetric: IC50

>>> obsvalue("C=CC(=O)N(C)C[C@H](NC(=O)c1cnccn1)C(=O)N1C[C@H](Oc2cc(-c3ccccc3)nc3cc(OC)ccc23)C[C@H]1C(=O)N[C@]1(C(=O)NS(=O)(=O)C2CC2)C[C@H]1C=C")
"0.01 to 0.1 µM"
>>> obsvalue("C=CC(=O)N(C)CC[C@H](NC(=O)OC1CCCC1)C(=O)N1C[C@H](Oc2cc(-c3ccccc3)nc3cc(OC)ccc23)C[C@H]1C(=O)N[C@]1(C(=O)NS(=O)(=O)C2CC2)C[C@H]1C=C")
"< 0.01 µM"
>>> obsvalue("C=CC(=O)N[C@H](C)C(=O)N1C[C@H](Oc2nccc3ccc(Br)cc23)C[C@H]1C(=O)N[C@]1(C(=O)NS(=O)(=O)C2CC2)C[C@H]1C=C")
"< 0.01 µM"
>>> obsvalue("C=C[C@@H]1C[C@]1(NC(=O)[C@@H]1CC(Oc2cc(-c3ccccc3)nc3cc(OC)ccc23)CN1C(=O)OC(C)(C)C)C(=O)NS(=O)(=O)C1CC1 (stereo partly shown)")
"< 0.01 µM"
>>> obsvalue("C=C[C@@H]1C[C@]1(NC(=O)[C@@H]1C[C@@H](Oc2nccc3cc(OC)ccc23)CN1C(=O)[C@H](CCC(=O)/C=C/C(C)(C)C)NC(=O)OC(C)(C)C)C(=O)NS(=O)(=O)C1CC1")
"< 0.01 µM"
>>> obsvalue("C=CC(=O)N(C)C[C@H](NC(=O)OC(C)(C)C)C(=O)N1C[C@H](Oc2cc(-c3ccccc3)nc3cc(OC)ccc23)C[C@H]1C(=O)N[C@]1(C(=O)NS(=O)(=O)C2CC2)C[C@H]1C=C")
"< 0.01 µM"
>>> obsvalue("C=CC(=O)NC[C@H](NC(=O)OC(C)(C)C)C(=O)N1C[C@H](Oc2nccc3cc(OC)ccc23)C[C@H]1C(=O)N[C@]1(C(=O)NS(=O)(=O)C2CC2)C[C@H]1C=C")
"< 0.01 µM"
>>> obsvalue("C=C[C@@H]1C[C@]1(NC(=O)[C@@H]1C[C@@H](Oc2nccc3cc(OC)ccc23)CN1C(=O)[C@H](CCC(=O)/C=C/c1ccccc1)NC(=O)OC(C)(C)C)C(=O)NS(=O)(=O)C1CC1")
"0.01 to 0.1 µM"
>>> obsvalue("C=C[C@@H]1C[C@]1(NC(=O)[C@@H]1C[C@@H](Oc2nccc3ccccc23)CN1C(=O)[C@H](CCC(=O)C=C(C)C)NC(=O)OC(C)(C)C)C(=O)NS(=O)(=O)C1CC1")
"< 0.01 µM"
>>> obsvalue("C=CC(=O)NCC(=O)N1C[C@H](Oc2cc(-c3ccccc3)nc3cc(OC)ccc23)C[C@H]1C(=O)N[C@]1(C(=O)NS(=O)(=O)C2CC2)C[C@H]1C=C")
"< 0.01 µM"
